# experimentalTarget: MAS (Homo sapiens, UniProt P04201)
# Construct: expressed in transfected cells
# Sequence (P04201 1-325): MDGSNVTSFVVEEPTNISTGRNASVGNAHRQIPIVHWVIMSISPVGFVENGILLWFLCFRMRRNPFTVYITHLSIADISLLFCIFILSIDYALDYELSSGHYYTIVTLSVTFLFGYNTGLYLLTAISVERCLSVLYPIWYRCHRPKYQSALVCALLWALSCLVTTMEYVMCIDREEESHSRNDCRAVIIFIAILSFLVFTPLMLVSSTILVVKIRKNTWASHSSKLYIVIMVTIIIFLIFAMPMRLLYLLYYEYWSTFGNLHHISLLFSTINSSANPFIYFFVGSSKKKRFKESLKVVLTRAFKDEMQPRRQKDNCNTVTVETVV
# assayMethodText: SRF-RE luciferase reporter assay (Gα12-dependent), induced WT MAS stable cell line
# Assay type: cell-based
# statedConditions: induced cells
quantityKind: IC50
Please give the number followed by its unit.

Please report the measured IC50 for C=CCCN1CCC2(CC1)CN(C(=O)c1c(F)cccc1F)c1ccc(Cl)cc12 tested on MAS (Homo sapiens, UniProt P04201). 400 nM
